# Subject of test: T1, human PD-1-His (human, UniProt Q15116 25-170)
# T1 construct: extracellular domain; not shown: His tag
# Assay name: BLI (Octet ForteBio), antibody on ProA biosensor, PD-1-His in solution
Measured property: pKd
// returns pKd (minus log10 of molar concentration), number only

Q: What value of pKd has been recorded for this entry: humanized antibody 91D5-HZ1 (antibody, human IgG4 S228P, kappa, V domains shown) VH: EVQLVQSGAEVKKPGASVKVSCKASGYTFTDYYMNWVREAPGQGLEWMGEINPKYGDTTYAQKLQGRVTLTVDKSTSTAYMELSSLRSDDTAVYYCAKGIRLFDSWGQGTLVTVSS VL: DIQLTQSPSSLSASVGDRVTITCRPSGNVHNYFAWYQQKPGKSPKLLVYNAKTLAEGVPSRFSGSGSGTDYTLTISSLQPEDFATYYCHHYYTAPFTFGGGTKVEIKR
Result: 8.72
